The values you see were collected from BindingDB's records for doi:10.1021/acs.jmedchem.6b01300.

- measured target: Stimulator of interferon genes protein (Homo sapiens, UniProt Q86WV6)
- Sequence (Q86WV6 whole entry): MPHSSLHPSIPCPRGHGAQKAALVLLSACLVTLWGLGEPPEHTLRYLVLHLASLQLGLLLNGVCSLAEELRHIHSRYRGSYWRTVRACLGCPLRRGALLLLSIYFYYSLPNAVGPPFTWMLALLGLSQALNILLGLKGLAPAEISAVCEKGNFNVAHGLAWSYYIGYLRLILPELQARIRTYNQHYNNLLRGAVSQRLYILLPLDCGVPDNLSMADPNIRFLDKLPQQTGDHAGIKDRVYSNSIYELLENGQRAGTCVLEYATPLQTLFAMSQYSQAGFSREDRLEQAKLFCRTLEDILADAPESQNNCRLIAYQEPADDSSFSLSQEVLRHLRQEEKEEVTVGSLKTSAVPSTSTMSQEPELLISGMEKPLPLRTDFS
- procedure text: Activation of STING in human THP-1-Dual cells assessed as induction of type I IFNs by measuring stimulation of IRF pathway incubated for 48 hrs by luciferase reporter gene assay
property measured: EC50 (nM)

Would you please look over these solved cases?
Sample Nc1ncnc2c1ncn2[C@@H]1O[C@@H]2COP(=O)(O)O[C@H]3[C@@H](F)[C@H](n4cnc5c(O)ncnc54)O[C@@H]3COP(=O)(O)O[C@H]2[C@H]1F — what was its EC50?
1100

Queued: Nc1ncnc2c1ncn2[C@@H]1O[C@@H]2COP(=O)(S)O[C@H]3[C@@H](O)[C@H](n4cnc5c(O)ncnc54)O[C@@H]3COP(=O)(S)O[C@H]2[C@H]1O (stereo not given in full)
1600

Queued: Nc1ncnc2c1ncn2[C@@H]1O[C@@H]2COP(=O)(S)O[C@H]3[C@@H](F)[C@H](n4cnc5c(O)ncnc54)O[C@@H]3COP(=O)(S)O[C@H]2[C@H]1F (stereo not given in full)
300

[P] Nc1ncnc2c1ncn2[C@@H]1O[C@@H]2COP(=O)(O)O[C@H]3C[C@H](n4cnc5c(O)ncnc54)O[C@@H]3COP(=O)(O)O[C@H]2[C@H]1F
[Q] Nc1ncnc2c1ncn2[C@H]1C[C@@H]2OP(=O)(O)OC[C@H]3O[C@@H](n4cnc5c(O)ncnc54)[C@H](F)[C@@H]3OP(=O)(O)OC[C@H]2O1
Given P and Q , report the one with the higher recorded EC50. Give the label under which the chosen entry appears.
Q
(Q: 2300 nM, P: 1400 nM)
